In this section, each of the variants is paired with its reported polymerase ribozyme fitness (log ratio).
B1: TPR t1 (parent)
chain: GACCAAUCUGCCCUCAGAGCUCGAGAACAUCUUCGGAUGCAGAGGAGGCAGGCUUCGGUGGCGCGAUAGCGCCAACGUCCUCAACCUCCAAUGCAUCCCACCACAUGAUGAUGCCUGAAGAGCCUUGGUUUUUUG

Variants of: B1
test: polymerase ribozyme fitness, log enrichment relative to wild type (log ratio); higher = more active; in vitro selection for triplet polymerase activity
No unit in the answer, only the number.

Sample answers from the record:
C11G A16G G60A C64U G110A A118G: -6.79
C4A C15U G51A C82G C123U: -5.31
C8A C115A: 0.286
C13U A27U G36A G61A C79A: -5.13
U9G C34U: -3.92
C12U C13U A43G G61A: -2.1

Then there is this variant:
// polymerase ribozyme fitness (log ratio) lookup, variant = C13U A18U U81G G117U , result: -6.34
